A collection of compounds and their measured herbicidal efficacy, Amaranthus retroflexus
System: Amaranthus retroflexus
procedure details: Weed foliar treatment test (Test Example 3)
Assay type: in vivo
condition context: 10 g a.i./10 a; foliar spray at 1.0 to 2.0 leaf stage of Digitaria ciliaris; 3 weeks, 25° C.

Example entries begin here.
COC(=O)Nc1c(C#N)cnn1-c1nn2c(c1Cl)CCC2 :: 10 (100%)
CCOC(=O)Nc1c([N+](=O)[O-])cnn1-c1nn2c(c1Cl)CCCC2 [Control agent 2.28, reference compound] :: 6 (60% to less than 70%)
CCOC(=O)Nc1c(C#N)cnn1-c1nn2c(c1Cl)CCCC2 :: 10 (100%)

Below: the item to evaluate.
Query :: Give the reported herbicidal efficacy, Amaranthus retroflexus for this compound. "COC(=O)Nc1c(C#N)cnn1-c1nn2c(c1Cl)CCCC2"
Result :: 10 (100%)

====

Test system: Amaranthus retroflexus
procedure details: Farming soil treatment test
Assay type: in vivo
condition context: 10 g a.i./10 a; soil surface spray prior to weed growth; 30 days, 30° C.
measured attribute: herbicidal efficacy, Amaranthus retroflexus

Below are worked cases with known answers.
COC(=O)Nc1c(C#N)cnn1-c1nn2c(c1Cl)CCCC2 :: 10 (100%)
CCOC(=O)Nc1c(C#N)cnn1-c1nn2c(c1Cl)CCCC2 :: 10 (100%)
CCOC(=O)Nc1c([N+](=O)[O-])cnn1-c1nn2c(c1Cl)CCCC2 [Control agent 2.28, reference compound] :: 5 (50% to less than 60%)

Now for another entry.
Query :: Print Amaranthus retroflexus herbicidal efficacy, Amaranthus retroflexus for "COC(=O)Nc1c(C#N)cnn1-c1nn2c(c1Cl)CCC2" .
Result :: 10 (100%)

====

herbicidal efficacy, Scirpus juncoides: recorded values
Tested on: Scirpus juncoides
procedure details: Paddy herbicidal activity test
Format: in vivo
condition context: 5 g a.i./10 a; dropped into paddy water at 3.5 leaf stage of Echinochloa crus-galli; 30 days, 30° C.; vs untreated group

Query :: Answer with the recorded herbicidal efficacy, Scirpus juncoides of CCOC(=O)Nc1c([N+](=O)[O-])cnn1-c1nn2c(c1Cl)CCCC2 [Control agent 2.28, reference compound] only.
Result :: 2 (20% to less than 30%)

Query :: Please indicate herbicidal efficacy, Scirpus juncoides recorded for "COC(=O)Nc1c(C#N)cnn1-c1nn2c(c1Cl)CCC2"
Result :: 10 (100%)

Query :: Supply measured herbicidal efficacy, Scirpus juncoides of "CCOC(=O)Nc1c(C#N)cnn1-c1nn2c(c1Cl)CCCC2" in your reply.
Result :: 10 (100%)

Query :: Let me know recorded herbicidal efficacy, Scirpus juncoides for "COC(=O)Nc1c(C#N)cnn1-c1nn2c(c1Cl)CCCC2" , thanks.
Result :: 10 (100%)

====

System: Oryza sativa
procedure details: Paddy herbicidal activity test, phytotoxicity to transplanted rice
Type: in vivo
condition context: 1 g a.i./10 a; rice transplanted in the 2.0 leaf stage; 30 days, 30° C.; vs complete eradication group
measured attribute: phytotoxicity, Oryza sativa

Example entries and their recorded answers appear below.
COC(=O)Nc1c(C#N)cnn1-c1nn2c(c1Cl)CCC2 :: 1 (10% to less than 20%)
CCOC(=O)Nc1c(C#N)cnn1-c1nn2c(c1Cl)CCCC2 :: 1 (10% to less than 20%)

Now examine the next entry.
Query :: Annotate the compound "COC(=O)Nc1c(C#N)cnn1-c1nn2c(c1Cl)CCCC2" with its measured phytotoxicity, Oryza sativa.
Result :: 1 (10% to less than 20%)

====

System: Digitaria ciliaris
procedure details: Weed foliar treatment test (Test Example 3)
Format: in vivo
condition context: 5 g a.i./10 a; foliar spray at 1.0 to 2.0 leaf stage of Digitaria ciliaris; 3 weeks, 25° C.
Description: 3. Weed Foliar Treatment Test Soil was filled into a 1/6000 are pot followed by seeding with Digitaria ciliaris, Chenopodium album and Amaranthus retroflexus, covering with soil, and cultivating in a glass greenhouse at an average atmospheric temperature of 25° C. […]
Recorded herbicidal efficacy, Digitaria ciliaris values for a group of molecules are listed next.

CCOC(=O)Nc1c(C#N)cnn1-c1nn2c(c1Cl)CCCC2 :: 10 (100%)
COC(=O)Nc1c(C#N)cnn1-c1nn2c(c1Cl)CCCC2 :: 10 (100%)
COC(=O)Nc1c(C#N)cnn1-c1nn2c(c1Cl)CCC2 :: 10 (100%)

Let us examine a further case.
Query :: Fill in reported herbicidal efficacy, Digitaria ciliaris for this entry: CCOC(=O)Nc1c([N+](=O)[O-])cnn1-c1nn2c(c1Cl)CCCC2 [Control agent 2.28, reference compound]
Result :: 2 (20% to less than 30%)

====

System: Chenopodium album
procedure details: Weed foliar treatment test (Test Example 3)
Type: in vivo
condition context: 5 g a.i./10 a; foliar spray at 1.0 to 2.0 leaf stage of Digitaria ciliaris; 3 weeks, 25° C.
Procedure: 3. Weed Foliar Treatment Test Soil was filled into a 1/6000 are pot followed by seeding with Digitaria ciliaris, Chenopodium album and Amaranthus retroflexus, covering with soil, and cultivating in a glass greenhouse at an average atmospheric temperature of 25° C. […]
measured attribute: herbicidal efficacy, Chenopodium album

// known answers, use as guide
CCOC(=O)Nc1c([N+](=O)[O-])cnn1-c1nn2c(c1Cl)CCCC2 [Control agent 2.28, reference compound] :: 6 (60% to less than 70%)
CCOC(=O)Nc1c(C#N)cnn1-c1nn2c(c1Cl)CCCC2 :: 10 (100%)
COC(=O)Nc1c(C#N)cnn1-c1nn2c(c1Cl)CCC2 :: 10 (100%)

Query :: # return recorded herbicidal efficacy, Chenopodium album for entry "COC(=O)Nc1c(C#N)cnn1-c1nn2c(c1Cl)CCCC2"
Result :: 10 (100%)

====

System: Chenopodium album
procedure details: Weed foliar treatment test (Test Example 3)
Type: in vivo
condition context: 10 g a.i./10 a; foliar spray at 1.0 to 2.0 leaf stage of Digitaria ciliaris; 3 weeks, 25° C.
Documented herbicidal efficacy, Chenopodium album across a set of molecules

Query :: With Chenopodium album as the test system, provide measured herbicidal efficacy, Chenopodium album for this molecule: CCOC(=O)Nc1c(C#N)cnn1-c1nn2c(c1Cl)CCCC2 [Compound 1]
Result :: 10 (100%)

Query :: Output reported herbicidal efficacy, Chenopodium album of the molecule CCOC(=O)Nc1c([N+](=O)[O-])cnn1-c1nn2c(c1Cl)CCCC2 [Control agent 2.28, reference compound] on Chenopodium album.
Result :: 7 (70% to less than 80%)

Query :: Provide herbicidal efficacy, Chenopodium album, system Chenopodium album, entry COC(=O)Nc1c(C#N)cnn1-c1nn2c(c1Cl)CCC2 [Compound 3]
Result :: 10 (100%)

Query :: Give measured herbicidal efficacy, Chenopodium album for COC(=O)Nc1c(C#N)cnn1-c1nn2c(c1Cl)CCCC2 [Compound 7] (Chenopodium album).
Result :: 10 (100%)

====

System: Monochoria vaginalis
procedure details: Paddy herbicidal activity test
Type: in vivo
condition context: 5 g a.i./10 a; dropped into paddy water at 3.5 leaf stage of Echinochloa crus-galli; 30 days, 30° C.; vs untreated group
measured attribute: herbicidal efficacy, Monochoria vaginalis

Illustrative cases are given below, each with its answer.
CCOC(=O)Nc1c([N+](=O)[O-])cnn1-c1nn2c(c1Cl)CCCC2 [Control agent 2.28, reference compound] :: 4 (40% to less than 50%)
COC(=O)Nc1c(C#N)cnn1-c1nn2c(c1Cl)CCC2 [Compound 3] :: 10 (100%)
CCOC(=O)Nc1c(C#N)cnn1-c1nn2c(c1Cl)CCCC2 [Compound 1] :: 10 (100%)

Continue with the next compound.
Query :: Determine from records and report herbicidal efficacy, Monochoria vaginalis for COC(=O)Nc1c(C#N)cnn1-c1nn2c(c1Cl)CCCC2 [Compound 7]
Result :: 10 (100%)
